Biological target: human granulocyte elastase (Homo sapiens, UniProt P08246)
Sequence (P08246 30-267): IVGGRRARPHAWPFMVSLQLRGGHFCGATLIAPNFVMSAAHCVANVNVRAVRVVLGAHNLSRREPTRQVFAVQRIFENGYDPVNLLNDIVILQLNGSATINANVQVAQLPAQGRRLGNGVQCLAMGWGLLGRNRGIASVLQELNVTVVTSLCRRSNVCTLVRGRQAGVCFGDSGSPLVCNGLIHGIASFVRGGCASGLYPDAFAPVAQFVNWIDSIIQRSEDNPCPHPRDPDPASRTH
Test: in vitro elastase inhibition, test method of Visser and Blout
Format: biochemical
Conditions: human granulocyte elastase as the enzyme; read-out: I50 (concentration which gives 50% inhibition of the human granulocyte elastase)
Peptide text beside a SMILES is read from it. * marks the point of attachment. Tos = Cc1ccc(S(=O)(=O)*)cc1
Observed Property: pIC50
// pIC50 here means minus log10 of the molar concentration (mol/L)

Summary line: CCNC(=O)[C@@H]1CCCN1C(=O)[C@H](C)NS(=O)(=O)c1ccc(C)cc1 (Tos-Ala-Pro-NHEt) , human granulocyte elastase (Homo sapiens, UniProt P08246), reported pIC50 = 3.05

The reported measurements were obtained from patent US4176116A.
